tested target: T1, human CD22 domain5-7-His (human, UniProt P20273 414-687)
T1 construct: also called hCD22 domain5-7-His; not shown: His tag
T1 sequence: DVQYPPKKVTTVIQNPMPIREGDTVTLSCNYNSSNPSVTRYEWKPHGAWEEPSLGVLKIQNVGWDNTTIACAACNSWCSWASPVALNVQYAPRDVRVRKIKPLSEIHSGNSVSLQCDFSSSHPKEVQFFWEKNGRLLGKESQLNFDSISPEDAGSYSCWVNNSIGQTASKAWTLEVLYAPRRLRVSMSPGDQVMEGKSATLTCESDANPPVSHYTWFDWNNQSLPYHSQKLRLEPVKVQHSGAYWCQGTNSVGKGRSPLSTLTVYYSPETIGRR
experimental protocol: ELISA, plate coated with human CD22 domain5-7-His

>  <binder>
F1.224.1 (antibody, human IgG1, kappa, V domains shown, Chimeric IgG1 kappa) VH: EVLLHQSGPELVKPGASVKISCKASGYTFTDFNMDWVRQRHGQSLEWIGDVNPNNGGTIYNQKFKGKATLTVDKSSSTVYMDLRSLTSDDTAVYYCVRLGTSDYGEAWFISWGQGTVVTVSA VL: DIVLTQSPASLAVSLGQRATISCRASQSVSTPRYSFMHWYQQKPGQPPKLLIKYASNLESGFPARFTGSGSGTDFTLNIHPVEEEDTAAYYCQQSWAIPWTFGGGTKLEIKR

>  <binding result>
no binding

$$$$
>  <binder>
F1.216.2 (antibody, human IgG1, kappa, V domains shown, Chimeric IgG1 kappa) VH: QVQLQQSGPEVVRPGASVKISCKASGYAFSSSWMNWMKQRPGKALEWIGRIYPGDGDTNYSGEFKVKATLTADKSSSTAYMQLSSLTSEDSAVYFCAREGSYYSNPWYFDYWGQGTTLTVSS VL: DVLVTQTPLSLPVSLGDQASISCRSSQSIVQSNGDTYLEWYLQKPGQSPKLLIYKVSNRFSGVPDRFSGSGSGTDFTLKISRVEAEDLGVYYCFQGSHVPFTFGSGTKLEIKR

>  <binding result>
no binding

$$$$
>  <binder>
F1.161.7 (antibody, human IgG1, kappa, V domains shown, Chimeric IgG1 kappa) VH: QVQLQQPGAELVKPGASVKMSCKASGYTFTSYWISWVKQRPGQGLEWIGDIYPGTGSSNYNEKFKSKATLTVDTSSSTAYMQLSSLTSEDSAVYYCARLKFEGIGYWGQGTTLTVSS VL: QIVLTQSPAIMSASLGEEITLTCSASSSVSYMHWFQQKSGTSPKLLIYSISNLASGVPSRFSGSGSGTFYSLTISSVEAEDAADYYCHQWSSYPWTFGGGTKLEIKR

>  <binding result>
no binding

$$$$
